Entry source: patent US20170015742A1

Catalogue of binders with associated kon
- study_target: T1, Human PDGF-BB (human, UniProt P01127 82-190)
- T1 construct: Recombinant human PDGF-BB, a dimer of two B chains; also called huPDGF-BB; hPDGF-BB
- T1 sequence (P01127 82-190 limits assumed): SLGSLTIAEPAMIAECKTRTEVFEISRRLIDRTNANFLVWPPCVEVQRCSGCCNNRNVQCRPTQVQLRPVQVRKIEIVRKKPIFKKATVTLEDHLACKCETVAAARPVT
- method: Biacore SPR (Example 1.1)
- Experimental: Unreacted moieties on the biosensor surface were blocked with ethanolamine. […] The equilibrium dissociation constant KD (M) of the reaction between antibodies and the target antigen was then calculated from the kinetic rate constants by the following formula: KD=Koff/Kₒₙ. Binding was recorded as a function of time and kinetic rate constants were calculated. In this assay, on-rates as fast as 10⁶M⁻¹s⁻¹ and off-rates as slow as 10⁻⁶ s⁻¹ could be measured.

binder: BDI-1E1-D5 (antibody, V domains shown) VH: EVKLQQSGDELVRPGASVKMSCKASGYTFTDYVMHWVKQSPGQGLEWIGTIIPLIDTTSYNQKFKGKATLTADKSSNTAYMELSRLTSEDSAVYYCARTSPYYYSSYDVMDAWGQGASVTVSS VL: NIQLTQSPSLLSASVGDRVTLSCKGSQNINNYLAWYQQKLGEAPKLLIYKTNNLQTGIPSRFSGCGSGTDYTLTISSLHSEDLATYYCYQYDNGYTFGAGTKLELK
kon: ≥ 1e+07 M⁻¹ s⁻¹

Suppose we examine the binder BFU-11A8-D6-C3 (antibody, V domains shown) VH: EVQLQQSGPELQRPGASVKLSCKASGYTFTESYIYWVKQRPEQSLELIGRIDPEDGSTDYVEKFKNKATLTADTSSNTAYMQLSSLTSEDTATYFCARFGARSYFYPMDAWGQGTSVTVSS VL: DTVLTQSPTLAVSPGERVSIPCRASESVSTLMHWYQQKPGQQPRLLIYGASNLESGVPARFSGSGSGTDFTLTIDPVEADDTATYFCQQSWNDPWTFGGGTKLELK ; what kon value has been reported?
2.1e+07 M⁻¹ s⁻¹

Next entry: BDI-5H1-F6 (antibody, V domains shown) VH: QVTLKESGPGILQPSQTLSLTCTFSGFSLSTFGMGVGWIRQPSGKGLEWLANIWWDDDKYYNPSLKNRLTISKDTSNSQAFLEITNVDTADTATYYCARISTGISSYYVMDAWGQGASVTVSS VL: QFTLTQPKSVSGSLRSTITIPCERSSGDIGDTYVSWYQQHLGRPPINVIYGNDQRPSEVSDRFSGSIDSSSNSASLTITNLQMDDEADYFCQSYDSDIDIVFGGGTKLTVL
≥ 1e+07 M⁻¹ s⁻¹

Next entry: BDI-6A3-A9 (antibody, V domains shown) VH: EVQLVESGGGLVQPGRSLKFSCAASGFSFSDSAMAWVRQAPKKGLEWVATIIYDGSGTYYRDSVKGRFTISRDNAKSTLYLQMDSLRSEDTATYYCARLGFNYGNYGYYVMDAWGQGASVTVSS VL: QFTLTQPKSVSGSLRNTITIPCERSSGDIGDSYVSWYQQHLGRPPINVIFADDQRPSEVSDRFSGSIDSSSNSASLTITNLQMDDEADYFCQSYDSNIDINIVFGGGTKLTVL
≥ 1e+07 M⁻¹ s⁻¹
